- tested_target: BAF/3 cells expressing human CXCR2 (Homo sapiens)
- Sequence (P25025 1-360): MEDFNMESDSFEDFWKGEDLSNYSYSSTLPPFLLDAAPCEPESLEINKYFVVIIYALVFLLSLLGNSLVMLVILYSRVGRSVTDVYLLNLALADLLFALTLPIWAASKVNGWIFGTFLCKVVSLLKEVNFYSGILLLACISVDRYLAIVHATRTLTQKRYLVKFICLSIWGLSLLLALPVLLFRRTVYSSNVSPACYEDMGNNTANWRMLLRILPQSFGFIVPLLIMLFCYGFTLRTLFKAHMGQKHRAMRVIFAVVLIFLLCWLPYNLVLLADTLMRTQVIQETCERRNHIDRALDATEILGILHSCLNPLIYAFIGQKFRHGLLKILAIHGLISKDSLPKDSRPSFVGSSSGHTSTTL
- protocol_description: Chemotaxis assay 1, transfected cell line: inhibition of CXCL1 induced chemotaxis
- assay_setup: inhibition of CXCL1 (3 nM) induced chemotaxis of BAF/3 cells expressing human CXCR2; 4 hours incubation
Each record is given true if its reported IC50 is strictly below 20 nM. Records at or above 20 nM are given false.

{"columns": ["compound", "class_label"],
 "data": [
  ["CC[C@H](Nc1c(Nc2cccc(C(=O)N3CCN4CCC[C@@H]4C3)c2O)c(=O)c1=O)c1ccccc1 [Example 23]", "false"],
  ["CC[C@@H](Nc1c(Nc2cccc(C(=O)N3CCC4C(=O)NCCC43)c2O)c(=O)c1=O)c1ccccc1 (stereo partly drawn) [Example 41]", "false"],
  ["O=C(c1cccc(Nc2c(Nc3cccc(F)c3Cl)c(=O)c2=O)c1O)N1CCN2CCCCC2C1 (stereo not drawn) [Example 51]", "false"],
  ["CC[C@@H](Nc1c(Nc2cccc(C(=O)N3CCN4CCOCC4C3)c2O)c(=O)c1=O)c1ccccc1 (stereo partly drawn) [Example 35]", "true"],
  ["CC[C@H](Nc1c(Nc2cccc(C(=O)N3CCN4CCC[C@H]4C3)c2O)c(=O)c1=O)c1ccccc1 [Example 25]", "false"],
  ["CC[C@@H](Nc1c(Nc2cccc(C(=O)N3CC4OC(C)(C)C[C@@H]4[C@H]3C(=O)OC)c2O)c(=O)c1=O)c1ccccc1 (stereo partly drawn) [Example 39]", "false"],
  ["O=C(Nc1cccc(C(=O)N2CCN3CCC[C@@H]3C2)c1O)Nc1cccc(F)c1Cl [Example 9]", "false"],
  ["CC[C@@H](Nc1c(Nc2cccc(C(=O)N3CCO[C@@H]4CN(C)C[C@H]43)c2O)c(=O)c1=O)c1ccccc1 [Example 43]", "true"],
  ["O=C(Nc1cccc(C(=O)N2CCN3C(=O)CCC3C2)c1O)Nc1cccc(Cl)c1Cl (stereo not drawn) [Example 13]", "false"],
  ["O=C(Nc1ccccc1Br)Nc1cccc(C(=O)N2CCN3CCC[C@@H]3C2)c1O [Example 8]", "false"],
  ["CC[C@@H](Nc1c(Nc2cccc(C(=O)N3CCC4(CCNC4=O)CC3)c2O)c(=O)c1=O)c1ccc(C)o1 [Example 50]", "false"],
  ["CC[C@@H](Nc1c(Nc2cccc(C(=O)N3CCC4(CCNC4=O)CC3)c2O)c(=O)c1=O)c1ccccc1 [Example 34]", "false"],
  ["O=C(Nc1cccc(C(=O)N2CCN3C(=O)COC[C@@H]3C2)c1O)Nc1cccc(F)c1Cl [Example 19]", "false"],
  ["CCC(Nc1c(Nc2cccc(C(=O)N3CCC4(CCNC4=O)CC3)c2O)c(=O)c1=O)c1ccccc1 (stereo not drawn) [Example 29]", "true"],
  ["O=C(Nc1cccc(C(=O)N2CCN3C(=O)COC[C@H]3C2)c1O)Nc1cccc(F)c1Cl [Example 18]", "true"]
]}
